- Assay Target: human NPR1 (Homo sapiens, UniProt P16066)
- Construct: host or cells: CHO-K1
- Sequence (P16066 33-1061): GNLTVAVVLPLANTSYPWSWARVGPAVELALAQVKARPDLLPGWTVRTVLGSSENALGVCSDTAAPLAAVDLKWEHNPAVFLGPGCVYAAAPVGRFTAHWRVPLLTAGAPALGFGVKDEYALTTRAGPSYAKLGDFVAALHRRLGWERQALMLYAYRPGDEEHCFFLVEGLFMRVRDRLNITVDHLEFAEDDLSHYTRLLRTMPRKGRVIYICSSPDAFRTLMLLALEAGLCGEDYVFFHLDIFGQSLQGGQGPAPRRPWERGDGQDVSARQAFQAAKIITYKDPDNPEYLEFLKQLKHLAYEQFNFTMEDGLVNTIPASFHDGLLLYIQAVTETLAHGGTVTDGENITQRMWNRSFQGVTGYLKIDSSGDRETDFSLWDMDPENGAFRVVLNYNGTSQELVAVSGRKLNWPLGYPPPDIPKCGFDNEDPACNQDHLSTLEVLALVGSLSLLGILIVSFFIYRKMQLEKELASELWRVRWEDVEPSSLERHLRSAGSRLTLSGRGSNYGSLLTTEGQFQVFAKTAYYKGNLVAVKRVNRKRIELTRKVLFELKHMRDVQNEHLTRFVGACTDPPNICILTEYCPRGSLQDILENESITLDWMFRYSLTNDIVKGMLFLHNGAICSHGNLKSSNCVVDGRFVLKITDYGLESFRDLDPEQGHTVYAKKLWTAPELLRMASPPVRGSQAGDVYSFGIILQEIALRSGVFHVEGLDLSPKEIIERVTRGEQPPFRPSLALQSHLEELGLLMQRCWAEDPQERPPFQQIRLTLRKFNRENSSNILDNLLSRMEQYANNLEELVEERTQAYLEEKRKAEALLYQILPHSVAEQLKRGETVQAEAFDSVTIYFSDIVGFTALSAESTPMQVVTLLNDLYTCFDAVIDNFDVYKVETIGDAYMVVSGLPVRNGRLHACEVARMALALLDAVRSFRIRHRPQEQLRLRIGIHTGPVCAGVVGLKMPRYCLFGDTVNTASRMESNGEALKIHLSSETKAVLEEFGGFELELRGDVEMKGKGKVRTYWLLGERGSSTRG
- Assay Protocol: Cellular cGMP production assay, human NPR1 expressing CHO-K1 cells (CisBio HTRF)
- Type: cell-based
- Test Settings: maximum cGMP production as percentage of the maximum cGMP produced with ANP
Endpoint Label: Human NPR1 Amax (% of ANP)

Solved entries:
compound=CC[C@H]([C@H]1CC[C@H](C(=O)O)CC1)N(C)c1nc2c(c(N[C@@H](CN3C4CCCC3CC4)c3cn(C)nc3C)n1)C[C@H](c1cccc(F)c1)CC2 result="96.769 % of ANP"
compound=CC[C@H]([C@H]1CC[C@H](C(=O)O)CC1)N(C)c1nc2c(c(N[C@@H](CN3CCCC[C@H]3CO)c3cnn(CC)c3)n1)C[C@H](c1cccc(F)c1)CC2 result="94.757 % of ANP"
compound="O=C(O)[C@H]1CC[C@H](C(CC2CC2)Nc2nc3c(c(N[C@@H](CN4CCCC4)c4ccccc4)n2)CC(c2ccccc2)CC3)CC1 (stereo partly drawn)" result="105.089 % of ANP"
compound=CC[C@@H](Nc1nc2c(c(N[C@@H](CN3CCC(OC)CC3)c3cnn(C)c3)n1)C[C@H](c1ccccc1)CC2)[C@H]1CC[C@H](C(=O)O)CC1 result="88.350 % of ANP"
compound=CC[C@@H](Nc1nc2c(c(N[C@@H](CN3C4CCCC3CCC4)c3cnn(CC)c3)n1)C[C@@H](c1cccc(F)c1)CC2)[C@H]1CC[C@H](C(=O)O)CC1 result="96.065 % of ANP"

Challenge: Suppose we examine the compound CC[C@@H](Nc1nc2c(c(N[C@@H](CN3CCCCC3)c3cnn(CC)c3)n1)C[C@H](c1ccccc1)CC2)[C@H]1CC[C@H](C(=O)O)CC1 ; what Human NPR1 Amax (% of ANP) value has been reported?
Response given: 98.472 % of ANP

---

- Assay Target: human NPR1 (Homo sapiens, UniProt P16066)
- Construct: host or cells: CHO-K1
- Assay Protocol: Cellular cGMP production assay, human NPR1 expressing CHO-K1 cells (CisBio HTRF)
- Type: cell-based
- Test Settings: cGMP production, 30 min at 37° C., 12-point dose-response from 30 μM
Listing: AC50 of selected molecules
Form entry: value (µM) — number only.

molecule="CC[C@H]([C@H]1CC[C@H](C(=O)O)CC1)N(C)c1nc2c(c(N[C@@H](CN3CCCC[C@@H]3CO)c3cnn(C)c3)n1)C[C@H](c1ccccc1)CC2 [Compound 149]" endpoint_label=AC50 measured_number=1.14
molecule="CCC(N(C)c1nc2c(c(N[C@@H](CN3C4CCCC3CCC4)c3cnn(C)c3)n1)C[C@H](c1ccccc1)CC2)C12CC(C(=O)O)(C1)C2 (stereo partly shown) [Compound 74]" endpoint_label=AC50 measured_number=0.246
molecule="CC[C@H]([C@H]1CC[C@H](C(=O)O)CC1)N(C)c1nc2c(c(N[C@@H](CN3CCC[C@H](C)C3)c3cnn(C)c3)n1)CN(c1cccc(F)c1)CC2 [Compound 124]" endpoint_label=AC50 measured_number=0.617
molecule="CC[C@H](N(C)c1nc2c(c(N[C@@H](CN3CCC[C@@H](CF)C3)c3cnn(C)c3)n1)C[C@@](C)(c1ccccc1)CC2)C12CC(C(=O)O)(C1)C2 [Compound 36]" endpoint_label=AC50 measured_number=0.15
molecule="CC[C@@H](Nc1nc2c(c(N[C@@H](CN3CCC[C@H](C)C3)c3cnn(C)c3)n1)C[C@](C)(c1cccc(F)c1)CC2)[C@H]1CC[C@H](C(=O)O)CC1 [Compound 2]" endpoint_label=AC50 measured_number=0.042

Challenge: Form entry - test system: human NPR1 (Homo sapiens, UniProt P16066); read-out: AC50; molecule: CC[C@@H]1CCCCN1C[C@H](Nc1nc(N[C@H](CC)[C@H]2CC[C@H](C(=O)O)CC2)nc2c1C[C@H](c1ccccc1)CC2)c1cnn(C)c1 [Compound 96]
Response given: 0.336

Challenge: Form entry - test system: human NPR1 (Homo sapiens, UniProt P16066); read-out: AC50; molecule: CC[C@H]([C@H]1CC[C@H](C(=O)O)CC1)N(C)c1nc2c(c(N[C@@H](CN3CCCC4(CC4)C3)c3cnn(C)c3)n1)C[C@H](c1ccccc1)CC2 [Compound 180]
Response given: 0.465

---

- Assay Target: monkey NPR1 (Macaca fascicularis, UniProt A0A7N9DBT9)
- Sequence (A0A7N9DBT9 entry or part of it): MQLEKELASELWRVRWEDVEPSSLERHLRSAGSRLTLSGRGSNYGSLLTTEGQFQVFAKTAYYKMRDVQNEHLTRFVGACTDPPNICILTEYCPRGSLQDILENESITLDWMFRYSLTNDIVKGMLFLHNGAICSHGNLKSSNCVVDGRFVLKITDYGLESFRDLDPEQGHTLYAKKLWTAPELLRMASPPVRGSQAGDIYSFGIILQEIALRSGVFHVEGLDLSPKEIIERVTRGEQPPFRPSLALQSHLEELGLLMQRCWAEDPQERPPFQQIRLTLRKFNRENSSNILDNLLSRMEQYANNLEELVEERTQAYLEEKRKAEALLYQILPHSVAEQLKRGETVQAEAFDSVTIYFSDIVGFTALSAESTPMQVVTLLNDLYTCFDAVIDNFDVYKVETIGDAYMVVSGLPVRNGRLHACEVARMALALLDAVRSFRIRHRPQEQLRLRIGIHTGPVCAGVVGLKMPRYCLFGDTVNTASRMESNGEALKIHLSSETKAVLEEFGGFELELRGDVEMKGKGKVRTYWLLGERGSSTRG
- Assay Protocol: Cellular cGMP production assay, monkey NPR1 expressing CHO-K1 cells (CisBio HTRF)
- Type: cell-based
- Test Settings: cGMP production, monkey NPR1 CHO-K1 cells, 30 min at 37° C., 12-point dose-response from 30 μM; read-out: Monkey NPR1 AC50
Endpoint Label: AC50
# output: number + unit

Solved entries:
molecule=CC[C@H]([C@H]1CC[C@H](C(=O)O)CC1)N(C)c1nc2c(c(N[C@@H](CN3CCCCC3)c3cnn(CC(F)(F)F)c3)n1)C[C@H](c1ccccc1)CC2 assay_target="monkey NPR1 (Macaca fascicularis, UniProt A0A7N9DBT9)" endpoint_label=AC50 result="1430 nM"
molecule=CC[C@@H](Nc1nc2c(c(N[C@@H](CN3CCC[C@H](C)C3)c3cnn(C)c3)n1)C[C@H](c1ccccc1)CC2)[C@H]1CC[C@H](C(=O)O)CC1 assay_target="monkey NPR1 (Macaca fascicularis, UniProt A0A7N9DBT9)" endpoint_label=AC50 result="84 nM"
molecule=C[C@@H](Nc1nc2c(c(N[C@@H](CN3CCCC3)c3ccccc3)n1)C[C@H](c1ccccc1)CC2)c1ccc(C(=O)O)cc1 assay_target="monkey NPR1 (Macaca fascicularis, UniProt A0A7N9DBT9)" endpoint_label=AC50 result="503 nM"

Consider the record given below.
Challenge: Suppose we examine the molecule CC[C@@H](N(C)c1nc2c(c(N[C@@H](CN3CCC[C@H](C)C3)c3cnn(C)c3)n1)C[C@H](c1cccc(F)c1)CC2)C12CC(C(=O)O)(C1)C2 ; what AC50 value has been reported?
Response given: 45 nM

---

- Assay Target: human NPR1 (Homo sapiens, UniProt P16066)
- Construct: host or cells: CHO-K1
- Assay Protocol: Cellular cGMP production assay, human NPR1 expressing CHO-K1 cells (CisBio HTRF)
- Assay type: cell-based
- Test Settings: cGMP production, 30 min at 37° C., 12-point dose-response from 30 μM
Endpoint Label: AC50 (µM)
Form entry: value (µM) — number only.

compound="CC[C@H]([C@H]1CC[C@H](C(=O)O)CC1)N(C)c1nc2c(c(N[C@@H](CN3C4CCCC3CC4)c3cnn(C)c3)n1)C[C@H](c1ccc(F)cc1)CC2 [Compound 31]" assay_target="human NPR1 (Homo sapiens, UniProt P16066)" unit_of_measure=µM measured_number=0.144

Challenge: Suppose we examine the compound CC[C@@H](N(C)c1nc2c(c(N[C@@H](CN3CCC[C@H](C)C3)c3cnn(C)c3)n1)C[C@](C)(c1ccccc1)CC2)C12CC(C(=O)O)(C1)C2 [Compound 8] ; what AC50 value has been reported?
Response given: 0.087

Challenge: Suppose we examine the compound CC[C@@H](Nc1nc2c(c(N[C@@H](CN3CC4CCC3C4)c3ccccc3)n1)C[C@H](c1ccccc1)CC2)[C@H]1CC[C@H](C(=O)O)CC1 (stereo partly drawn) [Compound 160] ; what AC50 value has been reported?
Response given: 1.62

---

- Assay Target: human NPR1 (Homo sapiens, UniProt P16066)
- Construct: host or cells: CHO-K1
- Assay Protocol: Cellular cGMP production assay, human NPR1 expressing CHO-K1 cells (CisBio HTRF)
- Format: cell-based
- Test Settings: cGMP production, 30 min at 37° C., 12-point dose-response from 30 μM
Lab note: cut-off is 200 nM. Strictly less in AC50 is Satisfied. Exactly 200 nM or more is Not satisfied.

Recorded results for 5 compounds are shown here.
compound="CC[C@@H](Nc1nc2c(c(N[C@@H](CN3C4CCCC3CCC4)c3cnn(C(C)C)c3)n1)C[C@H](c1ccccc1)CC2)[C@H]1CC[C@H](C(=O)O)CC1 [Compound 132]" assay_target="human NPR1 (Homo sapiens, UniProt P16066)" discrete_label="Not satisfied"
compound="CC[C@H]([C@H]1CC[C@H](C(=O)O)CC1)N(C)c1nc2c(c(N[C@@H](CN3CCCC(F)(F)CC3)c3cnn(C)c3)n1)C[C@H](c1ccccc1)CC2 [Compound 150]" assay_target="human NPR1 (Homo sapiens, UniProt P16066)" discrete_label="Not satisfied"
compound="CC[C@@H](Nc1nc2c(c(N[C@@H](CN3CCCCC3)c3cnn(CC)c3)n1)C[C@H](c1cccc(F)c1)CC2)[C@H]1CC[C@H](C(=O)O)CC1 [Compound 30]" assay_target="human NPR1 (Homo sapiens, UniProt P16066)" discrete_label=Satisfied
compound="CC[C@H]([C@H]1CC[C@H](C(=O)O)CC1)N(C)c1nc2c(c(N[C@@H](CN3CC[C@@H](O)[C@H](C)C3)c3cnn(C)c3)n1)C[C@H](c1ccccc1)CC2 [Compound 179]" assay_target="human NPR1 (Homo sapiens, UniProt P16066)" discrete_label="Not satisfied"
compound="CC[C@@H](Nc1nc2c(c(N[C@@H](CN3C4CCCC3CC(O)C4)c3cnn(CC)c3)n1)C[C@H](c1cccc(F)c1)CC2)[C@H]1CC[C@H](C(=O)O)CC1 (stereo partly shown) [Compound 117]" assay_target="human NPR1 (Homo sapiens, UniProt P16066)" discrete_label="Not satisfied"

Challenge: AC50 strictly < 200 nM for this compound? CC[C@@H](N(C)c1nc2c(c(N[C@@H](CN3C4CCCC3CC4)c3scnc3C)n1)C[C@H](c1cccc(F)c1)CC2)C12CC(C(=O)O)(C1)C2 [Compound 113]
Response given: Not satisfied

Challenge: AC50 strictly < 200 nM for this compound? CC[C@@H](Nc1nc2c(c(N[C@@H](CN3CCCC(C)(C)C3)c3cnn(C)c3)n1)C[C@H](c1ccccc1)CC2)[C@H]1CC[C@H](C(=O)O)CC1 [Compound 95]
Response given: Not satisfied

Challenge: AC50 strictly < 200 nM for this compound? CC[C@@H](Nc1nc2c(c(N[C@@H](CN3CCC[C@H](C)C3)c3cnn(CC)c3)n1)CN(c1cccc(F)c1)CC2)[C@H]1CC[C@H](C(=O)O)CC1 [Compound 76]
Response given: Not satisfied

Challenge: AC50 strictly < 200 nM for this compound? CC[C@H]([C@H]1CC[C@H](C(=O)O)CC1)N(C)c1nc2c(c(N[C@@H](CN3CCC[C@H](C)C3)c3cnn(C)c3)n1)CN(c1cccc(C#N)c1)CC2 [Compound 174]
Response given: Satisfied

Challenge: AC50 strictly < 200 nM for this compound? CC[C@@H](N(C)c1nc2c(c(N[C@@H](CN3C4CCCC3CC4)c3cnn(CC)c3)n1)C[C@H](c1cccc(F)c1)CC2)C12CC(C(=O)O)(C1)C2 [Compound 42]
Response given: Satisfied

Challenge: AC50 strictly < 200 nM for this compound? CC[C@@H](Nc1nc2c(c(N[C@@H](CN3CCCCC3)c3scnc3C)n1)C[C@H](c1ccccc1)CC2)[C@H]1CC[C@H](C(=O)O)CC1 [Compound 114]
Response given: Not satisfied

Challenge: AC50 strictly < 200 nM for this compound? CC[C@@H](Nc1nc2c(c(N[C@@H](CN3CCCCC3)c3cnn(C(C)C)c3)n1)C[C@H](c1ccccc1)CC2)[C@H]1CC[C@H](C(=O)O)CC1 [Compound 100]
Response given: Not satisfied

Challenge: AC50 strictly < 200 nM for this compound? C[C@@H](Nc1nc2c(c(N[C@@H](CN3CCCC3)c3ccccc3)n1)C[C@H](c1ccccc1)CC2)c1ccc(C(=O)O)cc1 [Compound 159]
Response given: Not satisfied

Challenge: AC50 strictly < 200 nM for this compound? CC[C@H]([C@H]1CC[C@H](C(=O)O)CC1)N(C)c1nc2c(c(N[C@@H](CN3CCCC4(CCOC4)C3)c3cnn(CC)c3)n1)C[C@H](c1ccccc1)CC2 (stereo partly shown) [Compound 162]
Response given: Not satisfied

Challenge: AC50 strictly < 200 nM for this compound? CC(C)n1cc([C@H](CN2CCCCC2)Nc2nc(N[C@H](C)c3ccc(C(=O)O)cc3)nc3c2C[C@H](c2ccccc2)CC3)cn1 [Compound 171]
Response given: Not satisfied

Challenge: AC50 strictly < 200 nM for this compound? CC[C@H]([C@H]1CC[C@H](C(=O)O)CC1)N(C)c1nc2c(c(N[C@@H](CN3C4CCCC3CC4)c3cnn(C)c3C)n1)C[C@H](c1cccc(F)c1)CC2 [Compound 16]
Response given: Satisfied

Challenge: AC50 strictly < 200 nM for this compound? CC[C@@H](Nc1nc2c(c(N[C@@H](CN3CCC(F)CC3)c3cnn(C)c3)n1)C[C@H](c1ccccc1)CC2)[C@H]1CC[C@H](C(=O)O)CC1 [Compound 142]
Response given: Not satisfied

Challenge: AC50 strictly < 200 nM for this compound? CC[C@H]([C@H]1CC[C@H](C(=O)O)CC1)N(C)c1nc2c(c(N[C@@H](CN3C4CCCC3CC4)c3cc(C)n(C)n3)n1)C[C@H](c1cccc(F)c1)CC2 [Compound 88]
Response given: Not satisfied

Challenge: AC50 strictly < 200 nM for this compound? CC[C@@H](Nc1nc2c(c(N[C@@H](CN3C4CCCC3CCC4)c3cnn(CC)c3)n1)C[C@H](c1cccc(F)c1)CC2)[C@H]1CC[C@H](C(=O)O)CC1 [Compound 17]
Response given: Satisfied

Challenge: AC50 strictly < 200 nM for this compound? CC[C@H]([C@H]1CC[C@H](C(=O)O)CC1)N(C)c1nc2c(c(N[C@@H](CN3C4CCCC3CC4)c3cnn(C)c3)n1)C[C@](C)(c1ccccc1)CC2 [Compound 34]
Response given: Satisfied

Challenge: AC50 strictly < 200 nM for this compound? CC[C@H]([C@H]1CC[C@H](C(=O)O)CC1)N(C)c1nc2c(c(N[C@@H](CN3CCC[C@H](OC)C3)c3cnn(C)c3)n1)C[C@H](c1ccccc1)CC2 [Compound 134]
Response given: Not satisfied

Challenge: AC50 strictly < 200 nM for this compound? CC[C@H]([C@H]1CC[C@H](C(=O)O)CC1)N(C)c1nc2c(c(N[C@@H](CN3CCC[C@H](C)C3)c3cnn(C)c3)n1)CN(c1ccccc1F)CC2 [Compound 106]
Response given: Not satisfied
